Listing of recorded pEC50 by entry.
# measured_on: T1, cynomolgus monkey ST2 antigen (Cyno-ST2-his, Sino biological, 90915-C08H) (cynomolgus monkey, UniProt Q01638 19-328 (human entry))
# T1 construct: Bought protein; not shown: his tag
# T1 chain: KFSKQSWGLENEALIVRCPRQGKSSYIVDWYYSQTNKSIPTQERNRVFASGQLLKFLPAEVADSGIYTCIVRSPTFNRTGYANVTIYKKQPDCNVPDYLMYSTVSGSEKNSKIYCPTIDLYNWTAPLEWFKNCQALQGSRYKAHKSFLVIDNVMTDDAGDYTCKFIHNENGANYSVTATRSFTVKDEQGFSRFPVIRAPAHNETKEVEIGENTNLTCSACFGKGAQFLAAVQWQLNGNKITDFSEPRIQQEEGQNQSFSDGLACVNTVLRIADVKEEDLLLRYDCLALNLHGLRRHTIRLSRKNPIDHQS
# experiment_description: ELISA, plate coated with Cyno-ST2-his
# reply with the number alone; pEC50 is -log10 of concentration in mol/L

Past entries and their recorded results:
GSK3772847 (antibody STLM208 in CN104411333, prepared in-house) (antibody, human IgG2, kappa, V domains shown, Control anti-ST2 antibody) VH: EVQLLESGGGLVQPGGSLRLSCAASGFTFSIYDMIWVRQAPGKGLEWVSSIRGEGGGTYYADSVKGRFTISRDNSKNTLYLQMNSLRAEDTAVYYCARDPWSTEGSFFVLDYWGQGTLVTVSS VL: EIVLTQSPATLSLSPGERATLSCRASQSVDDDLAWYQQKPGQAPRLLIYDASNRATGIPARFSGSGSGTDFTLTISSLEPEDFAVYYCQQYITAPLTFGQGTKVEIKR; 9.62
Humanized 31C8-1.2 (antibody, human IgG2, kappa, V domains shown, also called hz31C8-1.2; hz31C81-1.2) VH: QVQLVQSGAKVKKPGATVKISCKASGYIFIDSEMHWVQQAPGKGLEWMGAIDPETGDTVYAKKFKGRVTITADKSSSTAYMELSSLRSEDTAVYYCTGSTTDYYFAYWGQGTLVTVSS VL: DIQMTQSPSSLSASVGDRVTITCRSSKSLLHSNGIIYLYWYQQKPGKAPKLLIYQLSNLASGVPSRFSSSGSGTDFTLTISSLQPEDFATYYCAQNLELPFTFGQGTKVEIKR; 10.13
Humanized 31C8-1.1 (antibody, human IgG2, kappa, V domains shown, also called hz31C8-1.1; hz31C81-1.1) VH: EVQLVQSGAEVKKPGATVKISCKASGYIFIDSEMHWVQQAPGKGLEWMGAIDPETGDTVYAEKFQGRVTITADKSSSTAYMELSSLRSEDTAVYYCTGSTTDYYFAYWGQGTLVTVSS VL: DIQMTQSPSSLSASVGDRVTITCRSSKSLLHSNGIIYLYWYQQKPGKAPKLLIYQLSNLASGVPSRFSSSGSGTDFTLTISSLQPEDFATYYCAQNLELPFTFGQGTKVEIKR; 10.15

Turning now to a further binder:
QUERY: Look at this binder and give its reported pEC50. Chimeric 31C8 (antibody, human IgG2, kappa, V domains shown, also called xi31C8) VH: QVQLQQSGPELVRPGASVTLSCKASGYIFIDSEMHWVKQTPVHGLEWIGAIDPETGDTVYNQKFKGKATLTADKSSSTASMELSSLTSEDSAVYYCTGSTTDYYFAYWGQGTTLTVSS VL: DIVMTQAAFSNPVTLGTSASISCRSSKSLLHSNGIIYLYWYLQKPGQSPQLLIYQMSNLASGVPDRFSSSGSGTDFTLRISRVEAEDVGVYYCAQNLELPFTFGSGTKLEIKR
RESULT: 10.16

Data credit: patent US20230272086A1
